testedSystem: OsWRKY34 (Oryza sativa, UniProt Q0JBA9 1-250)
Sequence (Q0JBA9 entry or part of it): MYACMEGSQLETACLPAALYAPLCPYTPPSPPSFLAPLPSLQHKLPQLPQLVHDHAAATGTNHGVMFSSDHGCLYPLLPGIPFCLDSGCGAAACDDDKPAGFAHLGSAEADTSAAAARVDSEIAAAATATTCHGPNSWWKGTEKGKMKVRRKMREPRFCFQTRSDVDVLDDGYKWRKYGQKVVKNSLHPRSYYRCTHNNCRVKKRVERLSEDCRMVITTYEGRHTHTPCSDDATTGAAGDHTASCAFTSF
procedureSummary: protein-binding microarray (RPBM); PBS, 2% BSA, 51.3 ng/ul salmon testes DNA, 50 uM zinc acetate, 200 nM TF, 25 C, 1 h; high values mean tight binding
experimentalParameters: protein: recombinant; tags: N-terminal polyhistidine and DsRed monomer fusion (pET32a); label: CyDye5-dUTP incorporated in the synthesized complementary strand; 3' TTTTT single-stranded linker to array surface; dsDNA, one strand shown
Over roughly 68,000 sequences, “fluorescence intensity (a.u.)” has its median near 9,100; the highest 2% begin near 16,000. The entries come from a sample that favours the highest values as a whole.
observedProperty: binding signal

residues | binding signal
ACTCCTCTGCATGCTTTTTTTTTCCCTTCAGTTTCAGTTGCGGAGTCACCTAGTGCAG | 11200 fluorescence intensity (a.u.)

Now for another entry.
In: Please look up its binding signal: `ACTCATGGATGCAGGTCCACCTACATACGTACTACCACAACGGAGTCACCTAGTGCAG`
Out: 8570 fluorescence intensity (a.u.)

---

testedSystem: OsWRKY34 (Oryza sativa, UniProt Q0JBA9 1-250)
procedureSummary: protein-binding microarray (RPBM); PBS, 2% BSA, 51.3 ng/ul salmon testes DNA, 50 uM zinc acetate, 200 nM TF, 25 C, 1 h; high values mean tight binding
experimentalParameters: protein: recombinant; tags: N-terminal polyhistidine and DsRed monomer fusion (pET32a); label: CyDye5-dUTP incorporated in the synthesized complementary strand; 3' TTTTT single-stranded linker to array surface; dsDNA, one strand shown
The full ranking holds about 68,000 sequences; the median of “fluorescence intensity (a.u.)” is about 9,100, and the highest 2% start at about 16,000. For the sample, the highest values were picked, then their nearest neighbours and some sequences at random.
observedProperty: binding signal

residues | binding signal
CCTGACGTGCTTCACCTCACCTGCTCATTTTTTATTTCCCCGGAGTCACCTAGTGCAG | 17300 fluorescence intensity (a.u.)
CGCCCCTTGATTCGCCTCGTTTTTTCTTTTCCCTTTTTTTCGGAGTCACCTAGTGCAG | 9920 fluorescence intensity (a.u.)
CACGTACGCCGCCGTGTCTCATCACGAGCTCGATCGTTTCCGGAGTCACCTAGTGCAG | 8240 fluorescence intensity (a.u.)
CCCACACTTCTCCCGTTCTCCTGGAGGAAGACGACACCCACGGAGTCACCTAGTGCAG | 8150 fluorescence intensity (a.u.)
CTTTCTTGCAATTTTGGTCTTCTTTCCTTTTGATTTGGTTCGGAGTCACCTAGTGCAG | 9200 fluorescence intensity (a.u.)
CCTTGCCTAGTCGCTGCTGCTGTTTATAAATTTCAACTCCCGGAGTCACCTAGTGCAG | 8810 fluorescence intensity (a.u.)
ATATACATAAGCTTCTCGTGCACACACAAACTAACATAAACGGAGTCACCTAGTGCAG | 8610 fluorescence intensity (a.u.)
CCACTTTTGCAGATTGCAGGGCGCGCAGTACTGCCGACAGCGGAGTCACCTAGTGCAG | 18900 fluorescence intensity (a.u.)

Could you now look at the following sequence, please?
In: Form field: binding signal recorded for `TAAAGCTTTATATAGCTGGCCCGCTGACTTTTTTATATATCGGAGTCACCTAGTGCAG` with OsWRKY34 (Oryza sativa, UniProt Q0JBA9 1-250) (enter value)
Out: 9020 fluorescence intensity (a.u.)

---

testedSystem: OsWRKY34 (Oryza sativa, UniProt Q0JBA9 1-250)
procedureSummary: protein-binding microarray (RPBM); PBS, 2% BSA, 51.3 ng/ul salmon testes DNA, 50 uM zinc acetate, 200 nM TF, 25 C, 1 h; high values mean tight binding
experimentalParameters: protein: recombinant; tags: N-terminal polyhistidine and DsRed monomer fusion (pET32a); label: CyDye5-dUTP incorporated in the synthesized complementary strand; 3' TTTTT single-stranded linker to array surface; dsDNA, one strand shown
The full ranking holds about 68,000 sequences; the median of “fluorescence intensity (a.u.)” is about 9,100, and the highest 2% start at about 16,000. The sample as a whole holds a higher share of the highest values than the screen did.
Parameter: binding signal. Scope: all listed entries.

residues | recordedValue
CGTTTTTTAATAGATGACGCCGTTGACTTTTTCTCACATGCGGAGTCACCTAGTGCAG | 31400 fluorescence intensity (a.u.)
TGGTGGCGGCGGTGGCAGTGGTGGTGTTGGGATTGGGGTACGGAGTCACCTAGTGCAG | 9230 fluorescence intensity (a.u.)
TCGTCGTGTTCGTGTTTTTTTTCTTCCAATCTGCGCGCGTCGGAGTCACCTAGTGCAG | 8990 fluorescence intensity (a.u.)
TGGGTGGGGATGAAGTGTGGAAGTGGCATATCTTTATCCACGGAGTCACCTAGTGCAG | 8320 fluorescence intensity (a.u.)

In: Look up binding signal: `AACGTGGAAGTGGATTGGGTGGTGGGTGGGGATCCACCTACGGAGTCACCTAGTGCAG`
Out: 22100 fluorescence intensity (a.u.)

---

binding signal overview
testedSystem: OsWRKY34 (Oryza sativa, UniProt Q0JBA9 1-250)
procedureSummary: protein-binding microarray (RPBM); PBS, 2% BSA, 51.3 ng/ul salmon testes DNA, 50 uM zinc acetate, 200 nM TF, 25 C, 1 h; high values mean tight binding
experimentalParameters: protein: recombinant; tags: N-terminal polyhistidine and DsRed monomer fusion (pET32a); label: CyDye5-dUTP incorporated in the synthesized complementary strand; 3' TTTTT single-stranded linker to array surface; dsDNA, one strand shown
Whole data set: some 68,000 sequences, median “fluorescence intensity (a.u.)” near 9,100, cut for the highest 2% near 16,000. This is one part of a sample in which the highest values are shown more often than they occur.

# count of solved cases: 5
residues | testedSystem | recordedValue
CAACAGACTCTTCCCCTTCGCTCGCTCGCCTCCTCTTTCCCGGAGTCACCTAGTGCAG | OsWRKY34 (Oryza sativa, UniProt Q0JBA9 1-250) | 8220 fluorescence intensity (a.u.)
GTGTATGATGCCGTTGACTTTTTATCCAACGTTTGACCATCGGAGTCACCTAGTGCAG | OsWRKY34 (Oryza sativa, UniProt Q0JBA9 1-250) | 38800 fluorescence intensity (a.u.)
ATACATGACGCCGTTGATTTTTTAATCAACGTTTGACCATCGGAGTCACCTAGTGCAG | OsWRKY34 (Oryza sativa, UniProt Q0JBA9 1-250) | 8210 fluorescence intensity (a.u.)
AGATGCCTCGTGCTAGGTTTGATTGGTTGGTTGGTTGGTACGGAGTCACCTAGTGCAG | OsWRKY34 (Oryza sativa, UniProt Q0JBA9 1-250) | 19400 fluorescence intensity (a.u.)
GGCGGAGGGAGGGAGGGGAAGTCGGTGGTGAGGTGGCGTGCGGAGTCACCTAGTGCAG | OsWRKY34 (Oryza sativa, UniProt Q0JBA9 1-250) | 12900 fluorescence intensity (a.u.)

In: If you can, please state the reported binding signal value of `CACTTCTATTGGTTCTTTGTCTGGGAGTAGCAGCATAAGTCGGAGTCACCTAGTGCAG` .
Out: 8540 fluorescence intensity (a.u.)

In: # get_value(readout='binding signal', item= `TTCGGGCATACGCCACCCCGCCTTGTCATCCACCGCGCCCCGGAGTCACCTAGTGCAG` )
Out: 8470 fluorescence intensity (a.u.)

In: What binding signal value was documented for this sequence, `GTTGCTGTTTTTGATGGTCGTTGAGACAGATAGTTTGGTACGGAGTCACCTAGTGCAG` ?
Out: 8360 fluorescence intensity (a.u.)

In: Tell me the measured binding signal of `TCCCCTGTTCTCGTACACAAATTCGCAGCGATCTAATAGTCGGAGTCACCTAGTGCAG` , please.
Out: 8480 fluorescence intensity (a.u.)

In: Query: binding signal; subject: `TCGATTGGGGATTGGGGATTGGGGATCAGGAGGGATGGGGCGGAGTCACCTAGTGCAG`
Out: 20900 fluorescence intensity (a.u.)

In: Find the recorded binding signal belonging to `GCCTGCTGTTCCTTTTAGTTTCTCCAAGCTCCTGCCAACACGGAGTCACCTAGTGCAG` and report it.
Out: 8320 fluorescence intensity (a.u.)

---

testedSystem: OsWRKY34 (Oryza sativa, UniProt Q0JBA9 1-250)
procedureSummary: protein-binding microarray (RPBM); PBS, 2% BSA, 51.3 ng/ul salmon testes DNA, 50 uM zinc acetate, 200 nM TF, 25 C, 1 h; high values mean tight binding
experimentalParameters: protein: recombinant; tags: N-terminal polyhistidine and DsRed monomer fusion (pET32a); label: CyDye5-dUTP incorporated in the synthesized complementary strand; 3' TTTTT single-stranded linker to array surface; dsDNA, one strand shown
In all, about 68,000 sequences were measured (“fluorescence intensity (a.u.)”: median about 9,100, highest 2% from about 16,000 on). This is one part of a sample in which the highest values are shown more often than they occur.
observedProperty: binding signal

Worked examples, 5 sequences total:
residues | binding signal
GCGGCTGGGGTTGCGGTGCAATCTGGGGCGGGGATGCGAACGGAGTCACCTAGTGCAG | 17100 fluorescence intensity (a.u.)
ACGTGTTTGACCATTCGTTTTATTCAAATCATTTAAGTAACGGAGTCACCTAGTGCAG | 9230 fluorescence intensity (a.u.)
GTGGGGCGGTGGCTGCTGCATTGCATTGGGCGGGAGAGATCGGAGTCACCTAGTGCAG | 17200 fluorescence intensity (a.u.)
ACGGTGCCGAACGAGCTTGGGGATGGGGACGGCGGCGGGGCGGAGTCACCTAGTGCAG | 10200 fluorescence intensity (a.u.)
GCACAAGGCAGATGGAGGTTGTACAGCTATTATTATTTCACGGAGTCACCTAGTGCAG | 8380 fluorescence intensity (a.u.)

In: # lookup: binding signal of `TGTTTGACACCGTTGACTTTTTAGTCGTGTTTGACCATTCCGGAGTCACCTAGTGCAG`
Out: 24400 fluorescence intensity (a.u.)
